I'd be grateful if you could share measured pEC50 for these entries.
Target Or System: human purified sGC (heterodimer of sGCα1 and sGCβ1) (Homo sapiens (Human), UniProt Q02108+Q02153)
Sequence (Q02108 whole entry): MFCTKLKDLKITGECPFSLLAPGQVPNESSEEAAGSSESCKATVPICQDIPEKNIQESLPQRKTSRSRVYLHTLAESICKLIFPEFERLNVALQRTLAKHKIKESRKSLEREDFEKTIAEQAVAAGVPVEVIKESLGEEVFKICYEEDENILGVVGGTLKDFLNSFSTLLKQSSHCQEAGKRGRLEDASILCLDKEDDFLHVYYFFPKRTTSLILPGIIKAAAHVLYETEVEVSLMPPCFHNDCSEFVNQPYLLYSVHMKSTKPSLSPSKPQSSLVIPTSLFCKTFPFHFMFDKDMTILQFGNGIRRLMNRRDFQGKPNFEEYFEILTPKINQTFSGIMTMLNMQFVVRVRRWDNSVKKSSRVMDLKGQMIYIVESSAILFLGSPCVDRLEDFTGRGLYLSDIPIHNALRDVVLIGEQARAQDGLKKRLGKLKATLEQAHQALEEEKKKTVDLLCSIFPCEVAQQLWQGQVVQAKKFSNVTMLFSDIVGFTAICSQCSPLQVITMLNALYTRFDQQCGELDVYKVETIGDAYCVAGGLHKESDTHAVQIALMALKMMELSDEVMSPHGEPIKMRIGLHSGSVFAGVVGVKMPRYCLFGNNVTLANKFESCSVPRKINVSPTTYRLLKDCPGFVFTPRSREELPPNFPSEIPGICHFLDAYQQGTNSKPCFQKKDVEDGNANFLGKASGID
Sequence (Q02153 whole entry): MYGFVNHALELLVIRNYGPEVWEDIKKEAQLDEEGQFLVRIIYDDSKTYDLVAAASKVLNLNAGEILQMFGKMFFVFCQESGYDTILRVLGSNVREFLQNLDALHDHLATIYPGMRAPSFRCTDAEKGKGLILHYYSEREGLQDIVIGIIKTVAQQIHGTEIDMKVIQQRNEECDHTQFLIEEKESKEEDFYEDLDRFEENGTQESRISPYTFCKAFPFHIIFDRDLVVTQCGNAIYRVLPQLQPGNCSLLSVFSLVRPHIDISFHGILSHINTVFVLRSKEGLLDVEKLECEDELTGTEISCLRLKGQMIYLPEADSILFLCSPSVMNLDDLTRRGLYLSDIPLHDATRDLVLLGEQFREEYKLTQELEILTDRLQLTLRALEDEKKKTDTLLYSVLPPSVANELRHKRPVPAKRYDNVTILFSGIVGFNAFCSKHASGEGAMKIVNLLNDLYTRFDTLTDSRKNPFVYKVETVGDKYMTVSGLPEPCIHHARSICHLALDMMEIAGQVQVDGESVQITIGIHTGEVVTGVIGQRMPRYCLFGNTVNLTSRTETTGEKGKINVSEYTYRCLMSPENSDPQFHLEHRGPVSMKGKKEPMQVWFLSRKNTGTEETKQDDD
Test Name: sGC activation test (cGMP produced, HTRF)
Applied Conditions: maximum activity of Preparation Example 200 compound (maximum 100 μM) taken as 100%; with SNP; read-out: EC50 (concentration giving 50% of maximum activity)
Give bare numbers, as −log10 of the molar value.

Solved entries (count: 2):
Cc1nc2c(OCc3c(F)cccc3F)cccn2c1C(=O)NC(CO)c1cnn(C)c1 (stereo not drawn) :: 4.60
Cc1nc2c(OCc3c(F)cccc3F)cccn2c1C(=O)NCc1ccccc1[C@@H](O)[C@@H](C)O :: 5.31

Next:
Specify measured pEC50 for `Cc1ccnc(C(CO)(CO)NC(=O)c2c(C)nc3c(OCc4c(F)cccc4F)cccn23)c1` .
5.19

* * *

For each of the compounds below, state its pEC50.
Target Or System: human purified sGC (heterodimer of sGCα1 and sGCβ1) (Homo sapiens (Human), UniProt Q02108+Q02153)
Test Name: sGC activation test (cGMP produced, HTRF)
Applied Conditions: maximum activity of Preparation Example 200 compound (maximum 100 μM) taken as 100%; with SNP; read-out: EC50 (concentration giving 50% of maximum activity)
Give bare numbers, as −log10 of the molar value.

Worked set:
Cc1cnc([C@@]2(NC(=O)c3c(C)nc4c(OCc5c(F)cccc5F)cccn34)C[C@@H](O)[C@@H](O)C2)s1 :: 5.34
Cc1nc2c(OCc3c(F)cccc3F)cccn2c1C(=O)N[C@@H](CO)c1nnn(C(F)F)n1 :: 5.57
Cc1nnc([C@H](CO)NC(=O)c2c(C)nc3c(OCc4c(F)cccc4F)cccn23)o1 :: 4.48
Cc1nc2c(OCc3c(F)cccc3F)cccn2c1C(=O)NC(C)(CO)c1nnn(CC(C)O)n1 (centres unmarked) :: 5.04
Cc1nc2c(OCc3c(F)cccc3F)cccn2c1C(=O)NCc1ccccc1C(O)CO (centres unmarked) :: 5.19

Quick batch: pEC50 for everything below.
1. CCc1nnc(C(CO)(CO)NC(=O)c2c(C)nc3c(OCC4CCCCC4)cccn23)o1
2. Cc1nc2c(OCC3CCCCC3)cccn2c1C(=O)N[C@@H](CO)c1nnc(C2CC2)o1
3. Cc1nnc([C@](C)(CO)NC(=O)c2c(C)nc3c(OCc4c(F)cccc4F)cccn23)o1
4. Cc1nc2c(OCc3c(F)cccc3F)cccn2c1C(=O)NC(C)(CO)c1ccc(F)c(CO)c1 (centres unmarked)
5. Cc1nc2c(OCC3CCCCC3)cccn2c1C(=O)NC(CO)(CO)c1nnn(C)n1
6. Cc1nc2c(OCc3c(F)cccc3F)cccn2c1C(=O)NC(C)(CO)c1nnc(C2CC2)o1 (centres unmarked)

1. 4.77
2. 4.89
3. 5.26
4. 5.66
5. 4.80
6. 5.23

* * *

Target Or System: human purified sGC (heterodimer of sGCα1 and sGCβ1) (Homo sapiens (Human), UniProt Q02108+Q02153)
Test Name: sGC activation test (cGMP produced, HTRF)
Applied Conditions: maximum activity of Preparation Example 200 compound (maximum 100 μM) taken as 100%; with SNP; read-out: EC50 (concentration giving 50% of maximum activity)
For each record, check the reported EC50: if it is below 2 µM write MET, else write NOT MET.

Quick check: EC50 of `CCn1cc(C(CO)(CO)NC(=O)c2c(C)nc3c(OCc4c(F)cccc4F)cccn23)cn1` under 2 µM?
NOT MET

For `Cc1nc2c(OCc3c(F)cccc3F)cccn2c1C(=O)NCc1ccccc1[C@@H](O)[C@H](C)O` , is the recorded EC50 below the cut-off of 2 µM?
NOT MET

Strictly below 2 µM: is that where EC50 of Cc1nc2c(OCc3c(F)cccc3F)cccn2c1C(=O)NC(C)(CO)c1cnn(C)c1 (stereo not shown) sits?
NOT MET
